Assay: Equilibrium solubility of rosuvastatin calcium in mixed hydrotropic solutions
Type: physicochemical
Settings: mixed hydrotropic solution in distilled water, 37 °C, aqueous with cosolvent or surfactant or cyclodextrin, thermodynamic from solid, SS : SB : U 20 : 05 : 15 % w/v, total 40%
Protocol: In order to create a clear solution, two to three hydrotropic agents were mixed and dissolved in distilled water. Next, an excessive amount of calcium rosuvastatin was added, and the mixture was shaken until no more rosuvastatin was dissolved. […] Using a UV-visibledouble-beam spectrophotometer, a portion of the material was diluted with distilled water and analyzed at 242 nm. […]
Test Readout: solubility (mg/mL)
Number only, in mg/mL; omit the unit.

Measured solubility of CC(C)c1nc(N(C)S(C)(=O)=O)nc(-c2ccc(F)cc2)c1/C=C/[C@@H](O)C[C@@H](O)CC(=O)O : 89.9

====

assay: Equilibrium solubility of rosuvastatin calcium in single hydrotropic agent solutions; assay type: physicochemical; details: aqueous hydrotropic agent solution, 37 °C, aqueous with cosolvent or surfactant or cyclodextrin, thermodynamic from solid, sodium salicylate 20% w/v aqueous solution
Test Readout: solubility thermodynamic at 24 h (mg/mL)
Number only, in mg/mL; omit the unit.

Measured solubility thermodynamic at 24 h of CC(C)c1nc(N(C)S(C)(=O)=O)nc(-c2ccc(F)cc2)c1/C=C/[C@@H](O)C[C@@H](O)CC(=O)O : 49.9

====

test: Equilibrium solubility of rosuvastatin calcium in mixed hydrotropic solutions; format: physicochemical; details: mixed hydrotropic solution in distilled water, 37 °C, aqueous with cosolvent or surfactant or cyclodextrin, thermodynamic from solid, SS : SB : U 10 : 15 : 15 % w/v, total 40%
Test Readout: solubility (mg/mL)
Number only, in mg/mL; omit the unit.

Measured solubility of CC(C)c1nc(N(C)S(C)(=O)=O)nc(-c2ccc(F)cc2)c1/C=C/[C@@H](O)C[C@@H](O)CC(=O)O [rosuvastatin calcium, Rosuvastatin calcium] : 85.6

====

experiment: Equilibrium solubility of rosuvastatin calcium in single hydrotropic agent solutions; type: physicochemical; details: aqueous hydrotropic agent solution, 37 °C, aqueous with cosolvent or surfactant or cyclodextrin, thermodynamic from solid, sodium benzoate 10% w/v aqueous solution
Test Readout: solubility thermodynamic at 24 h (mg/mL)
Number only, in mg/mL; omit the unit.

Measured solubility thermodynamic at 24 h of CC(C)c1nc(N(C)S(C)(=O)=O)nc(-c2ccc(F)cc2)c1/C=C/[C@@H](O)C[C@@H](O)CC(=O)O [rosuvastatin calcium, Rosuvastatin calcium] : 22.9

====

assay: Equilibrium solubility of rosuvastatin calcium in mixed hydrotropic solutions; type: physicochemical; conditions: mixed hydrotropic solution in distilled water, 37 °C, aqueous with cosolvent or surfactant or cyclodextrin, thermodynamic from solid, SS : SB : U, each 13.333 % w/v, total 40%
Test Readout: solubility (mg/mL)
Number only, in mg/mL; omit the unit.

Measured solubility of CC(C)c1nc(N(C)S(C)(=O)=O)nc(-c2ccc(F)cc2)c1/C=C/[C@@H](O)C[C@@H](O)CC(=O)O : 192

====

test: Equilibrium solubility of rosuvastatin calcium in mixed hydrotropic solutions; format: physicochemical; settings: mixed hydrotropic solution in distilled water, 37 °C, aqueous with cosolvent or surfactant or cyclodextrin, thermodynamic from solid, SS : SB : U 20 : 10 : 10 % w/v, total 40%
Test Readout: solubility (mg/mL)
Number only, in mg/mL; omit the unit.

Measured solubility of CC(C)c1nc(N(C)S(C)(=O)=O)nc(-c2ccc(F)cc2)c1/C=C/[C@@H](O)C[C@@H](O)CC(=O)O [rosuvastatin calcium, Rosuvastatin calcium] : 101

====

test: Equilibrium solubility of rosuvastatin calcium in single hydrotropic agent solutions; type: physicochemical; details: aqueous hydrotropic agent solution, 37 °C, aqueous with cosolvent or surfactant or cyclodextrin, thermodynamic from solid, mannitol 20% w/v aqueous solution
Test Readout: solubility thermodynamic at 24 h (µg/mL)
Number only, in µg/mL; omit the unit.

Measured solubility thermodynamic at 24 h of CC(C)c1nc(N(C)S(C)(=O)=O)nc(-c2ccc(F)cc2)c1/C=C/[C@@H](O)C[C@@H](O)CC(=O)O : 599

====

assay: Equilibrium solubility of rosuvastatin calcium in single hydrotropic agent solutions; assay type: physicochemical; settings: aqueous hydrotropic agent solution, 37 °C, aqueous with cosolvent or surfactant or cyclodextrin, thermodynamic from solid, urea 10% w/v aqueous solution
Test Readout: solubility thermodynamic at 24 h (µg/mL)
Number only, in µg/mL; omit the unit.

Measured solubility thermodynamic at 24 h of CC(C)c1nc(N(C)S(C)(=O)=O)nc(-c2ccc(F)cc2)c1/C=C/[C@@H](O)C[C@@H](O)CC(=O)O : 850

====

experiment: Equilibrium solubility of rosuvastatin calcium in single hydrotropic agent solutions; format: physicochemical; conditions: aqueous hydrotropic agent solution, 37 °C, aqueous with cosolvent or surfactant or cyclodextrin, thermodynamic from solid, urea 40% w/v aqueous solution
Test Readout: solubility thermodynamic at 24 h (µg/mL)
Number only, in µg/mL; omit the unit.

Measured solubility thermodynamic at 24 h of CC(C)c1nc(N(C)S(C)(=O)=O)nc(-c2ccc(F)cc2)c1/C=C/[C@@H](O)C[C@@H](O)CC(=O)O : 1360

====

Assay: Equilibrium solubility of rosuvastatin calcium in single hydrotropic agent solutions
Assay type: physicochemical
Details: aqueous hydrotropic agent solution, 37 °C, aqueous with cosolvent or surfactant or cyclodextrin, thermodynamic from solid, urea 30% w/v aqueous solution
Method: At first, equilibrium solubility investigations were conducted with a variety of hydrotropic agents. […] In a 10 ml vial, 5 ml of a specific hydrotropic agent solution was accurately measured, and an excess of rosuvastatin calcium was added and physically agitated for 30 minutes until a saturated solution was generated. […]
Test Readout: solubility thermodynamic at 24 h (µg/mL)
Number only, in µg/mL; omit the unit.

Measured solubility thermodynamic at 24 h of CC(C)c1nc(N(C)S(C)(=O)=O)nc(-c2ccc(F)cc2)c1/C=C/[C@@H](O)C[C@@H](O)CC(=O)O [rosuvastatin calcium, Rosuvastatin calcium] : 1130

====

experiment: Equilibrium solubility of rosuvastatin calcium in mixed hydrotropic solutions; format: physicochemical; settings: mixed hydrotropic solution in distilled water, 37 °C, aqueous with cosolvent or surfactant or cyclodextrin, thermodynamic from solid, SS : SB : M, each 13.333 % w/v, total 40%
Test Readout: solubility
Entry format: amount then unit.

Measured solubility of CC(C)c1nc(N(C)S(C)(=O)=O)nc(-c2ccc(F)cc2)c1/C=C/[C@@H](O)C[C@@H](O)CC(=O)O : 73.8 mg/mL

====

assay: Equilibrium solubility of rosuvastatin calcium in single hydrotropic agent solutions; type: physicochemical; conditions: aqueous hydrotropic agent solution, 37 °C, aqueous with cosolvent or surfactant or cyclodextrin, thermodynamic from solid, sodium benzoate 40% w/v aqueous solution
Test Readout: solubility thermodynamic at 24 h (mg/mL)
Number only, in mg/mL; omit the unit.

Measured solubility thermodynamic at 24 h of CC(C)c1nc(N(C)S(C)(=O)=O)nc(-c2ccc(F)cc2)c1/C=C/[C@@H](O)C[C@@H](O)CC(=O)O : 119

====

experiment: Equilibrium solubility of rosuvastatin calcium in single hydrotropic agent solutions; type: physicochemical; conditions: aqueous hydrotropic agent solution, 37 °C, aqueous with cosolvent or surfactant or cyclodextrin, thermodynamic from solid, sodium benzoate 20% w/v aqueous solution
Test Readout: solubility thermodynamic at 24 h
Entry format: amount then unit.

Measured solubility thermodynamic at 24 h of CC(C)c1nc(N(C)S(C)(=O)=O)nc(-c2ccc(F)cc2)c1/C=C/[C@@H](O)C[C@@H](O)CC(=O)O [rosuvastatin calcium, Rosuvastatin calcium] : 39 mg/mL

====

Assay: Equilibrium solubility of rosuvastatin calcium in mixed hydrotropic solutions
Type: physicochemical
Conditions: mixed hydrotropic solution in distilled water, 37 °C, aqueous with cosolvent or surfactant or cyclodextrin, thermodynamic from solid, SS : SB : C, each 13.333 % w/v, total 40%
Experimental: In order to create a clear solution, two to three hydrotropic agents were mixed and dissolved in distilled water. Next, an excessive amount of calcium rosuvastatin was added, and the mixture was shaken until no more rosuvastatin was dissolved. […] Using a UV-visibledouble-beam spectrophotometer, a portion of the material was diluted with distilled water and analyzed at 242 nm. […]
Test Readout: solubility (mg/mL)
Number only, in mg/mL; omit the unit.

Measured solubility of CC(C)c1nc(N(C)S(C)(=O)=O)nc(-c2ccc(F)cc2)c1/C=C/[C@@H](O)C[C@@H](O)CC(=O)O [rosuvastatin calcium, Rosuvastatin calcium] : 47.9

====

assay: Equilibrium solubility of rosuvastatin calcium in single hydrotropic agent solutions; type: physicochemical; details: aqueous hydrotropic agent solution, 37 °C, aqueous with cosolvent or surfactant or cyclodextrin, thermodynamic from solid, citric acid 30% w/v aqueous solution
Test Readout: solubility thermodynamic at 24 h (µg/mL)
Number only, in µg/mL; omit the unit.

Measured solubility thermodynamic at 24 h of CC(C)c1nc(N(C)S(C)(=O)=O)nc(-c2ccc(F)cc2)c1/C=C/[C@@H](O)C[C@@H](O)CC(=O)O : 780

====

experiment: Equilibrium solubility of rosuvastatin calcium in single hydrotropic agent solutions; type: physicochemical; conditions: aqueous hydrotropic agent solution, 37 °C, aqueous with cosolvent or surfactant or cyclodextrin, thermodynamic from solid, citric acid 20% w/v aqueous solution
Test Readout: solubility thermodynamic at 24 h (mg/mL)
Number only, in mg/mL; omit the unit.

Measured solubility thermodynamic at 24 h of CC(C)c1nc(N(C)S(C)(=O)=O)nc(-c2ccc(F)cc2)c1/C=C/[C@@H](O)C[C@@H](O)CC(=O)O [rosuvastatin calcium, Rosuvastatin calcium] : 0.75
